Attribution: the NIST ThermoML archive (doi:10.1021/acs.jced.6b00362)

Experiment: refractive index (other wavelength) (dimensionless); xn = mol fraction of the nth substance listed
Details: 1103 K; 100 kPa; Liquid; Wavelength=632.8 nm; ellipsometry; x1 = 0.5
Readout label: refractive index

molecule="[Cl][Sm]([Cl])[Cl] [samarium chloride] + [Cl-].[Na+]" readout_label="refractive index" measured_number=1.582
molecule="[Cl][Ce]([Cl])[Cl] [cerium trichloride] + [Cl-].[Cs+]" readout_label="refractive index" measured_number=1.549
molecule="[Cl-].[Cl-].[Cl-].[Gd+3] [gadolinium(III) chloride] + [Cl-].[Cs+]" readout_label="refractive index" measured_number=1.538
molecule="[Cl][Ce]([Cl])[Cl] [cerium trichloride] + [Cl-].[K+]" readout_label="refractive index" measured_number=1.554
molecule="[Cl][Sm]([Cl])[Cl] [samarium chloride] + [Cl-].[K+]" readout_label="refractive index" measured_number=1.551

---

Experiment: refractive index (other wavelength) (dimensionless)
Details: 1113 K; 101 kPa; Liquid; Wavelength=632.8 nm; ellipsometry
Readout label: refractive index

molecule="[Cl-].[Na+] [sodium chloride]" measured_number=1.406
molecule="[Cl-].[Cs+] [cesium chloride]" measured_number=1.423
molecule="[Cl-].[K+] [potassium chloride]" measured_number=1.386
molecule="[Cl][Nd]([Cl])[Cl] [neodymium(III) chloride]" measured_number=1.695

---

Assay: refractive index (other wavelength) (dimensionless); xn = mol fraction of the nth substance listed
Conditions: 1173 K; 100 kPa; Liquid; Wavelength=632.8 nm; ellipsometry; x1 = 0.5
Readout label: refractive index

molecule="[Cl-].[Cl-].[Cl-].[Gd+3] [gadolinium(III) chloride] + [Cl-].[K+]" measured_number=1.529
molecule="[Cl-].[Cl-].[Cl-].[Gd+3] [gadolinium(III) chloride] + [Cl-].[Cs+]" measured_number=1.526
molecule="[Cl-].[Cl-].[Cl-].[Gd+3] [gadolinium(III) chloride] + [Cl-].[Na+]" measured_number=1.544
molecule="[Cl][Sm]([Cl])[Cl] [samarium chloride] + [Cl-].[K+]" measured_number=1.525
molecule="[Cl][Ce]([Cl])[Cl] [cerium trichloride] + [Cl-].[K+]" measured_number=1.544
molecule="[Cl][Sm]([Cl])[Cl] [samarium chloride] + [Cl-].[Na+]" measured_number=1.569
molecule="[Cl][Ce]([Cl])[Cl] [cerium trichloride] + [Cl-].[Cs+]" measured_number=1.537

---

Assay: refractive index (other wavelength) (dimensionless); xn = mol fraction of the nth substance listed
Conditions: 973 K; 100 kPa; Liquid; Wavelength=632.8 nm; ellipsometry; x1 = 0.75
Readout label: refractive index

molecule="[Cl][Sm]([Cl])[Cl] [samarium chloride] + [Cl-].[Na+]" measured_number=1.672
molecule="[Cl-].[Cl-].[Cl-].[Gd+3] [gadolinium(III) chloride] + [Cl-].[Cs+]" measured_number=1.621
molecule="[Cl-].[Cl-].[Cl-].[Gd+3] [gadolinium(III) chloride] + [Cl-].[Na+]" measured_number=1.64
molecule="[Cl-].[Cl-].[Cl-].[Gd+3] [gadolinium(III) chloride] + [Cl-].[K+]" measured_number=1.65
molecule="[Cl][Sm]([Cl])[Cl] [samarium chloride] + [Cl-].[K+]" measured_number=1.66
